System: Calu-3
Assay: drug sensitivity score (DSS) for viability; higher = more toxic; extreme values may be limits of the assay
Details: 72 h
Output yes for drug sensitivity score not less than 1; output no otherwise.

-- ask Please check the record `CCN(CC)CCOc1ccc(Nc2ncc3cc(-c4c(Cl)cccc4Cl)c(=O)n(C)c3n2)cc1` and state if its drug sensitivity score is at or above 1.
-- reply yes

-- ask Say whether `CCN1CCN(c2cc(-c3ccc(F)cc3)c3c(n2)CCCCCC3)CC1` shows drug sensitivity score of 1 or more.
-- reply no

-- ask Could you please find out whether `CC(=O)[C@@]1(O)CC[C@H]2[C@@H]3C[C@H](C)C4=CC(=O)CC[C@]4(C)[C@H]3CC[C@@]21C` has drug sensitivity score that meets 1 or exceeds it?
-- reply no

-- ask Does the reported drug sensitivity score for `CN1CCN(CCc2ccc(Cl)c(Cl)c2)CC1` fall at or above the 1 mark?
-- reply no

-- ask Please check the record `Oc1ccc2[nH]cc(C3=CCNCC3)c2n1` and state if its drug sensitivity score is at or above 1.
-- reply no

-- ask Record `C=CC(=O)Nc1ccc2ncnc(Nc3cccc(Br)c3)c2c1` ; criterion: drug sensitivity score no lower than 1. Met?
-- reply yes

-- ask Confirm if drug sensitivity score reported for the compound `CCN(CC)CCOc1ccc(/C(=C(\Cl)c2ccccc2)c2ccccc2)cc1` is 1 or above.
-- reply yes

-- ask Determine whether measured drug sensitivity score meets or exceeds 1 for `CN[C@@H](C)C(=O)N[C@H](C(=O)N1CCC[C@H]1C(=O)Nc1snnc1-c1ccccc1)C1CCCCC1`
-- reply yes

-- ask Could you please find out whether N=C(N)NC(=O)c1cnn(-c2cccc3ncccc23)c1C1CC1 [zoniporide] has drug sensitivity score that meets 1 or exceeds it?
-- reply no
